Test system: Akkermansia muciniphila
Experimental details: growth AUC relative to DMSO control (median of replicates) (fraction); higher = more growth (less inhibition), active = hit call of the paper;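 active = AUC reduced over 20% with Padj below 0.05 in at least 2 of 3 replicates; inactive = otherwise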
Recorded conditions: 20 µM; 24 h
# output must be one of true (active), false (inactive)

Solved entries (count: 6):
CC(C)(C)C(O)/C(=C/c1ccc(Cl)cc1Cl)n1cncn1 (mixture of isomers) :: false
C=CCN=C=S :: false
CCNP(=S)(OC)O/C(C)=C/C(=O)OC(C)C (centres undefined) :: false
CNC(=O)O/N=C/C(C)(C)S(C)=O (centres undefined) :: false
C/C(=N\NC(=O)Nc1cc(F)cc(F)c1)c1ncccc1C(=O)[O-].[Na+] :: false
CCOP(=S)(OCC)Oc1cc(C)nc(N(CC)CC)n1 :: false

Hi, sorry to bother you, what did the test record for COP(=S)(OC)SCn1nnc2ccccc2c1=O ?
false

Outcome? CCOP(=O)(OCC)O/C(=C\Cl)c1ccc(Cl)cc1Cl
false

Lab log entry: CCN(CC)N=O — outcome as called in the assay?
false

Which outcome did this test record for the molecule COP(=O)(OC)O/C(=C\Cl)c1ccc(Cl)cc1Cl ?
false

Each molecule tested received a call. Report the one for Clc1ccc(C2(Cn3cncn3)OCCO2)c(Cl)c1 .
false

Look up the recorded call for CCCCNC(=O)n1c(NC(=O)OC)nc2ccccc21 in this test.
false

Fill in: this test's call for Clc1ccc(C2(Cn3cncn3)CC(Br)CO2)c(Cl)c1 (centres undefined) is ___
false

Given COP(=S)(OC)Oc1ccc([N+](=O)[O-])c(C)c1 , state the outcome it received in this test.
false

Look up the recorded call for CC(C)N1C(=O)c2ccccc2NS1(=O)=O in this test.
false

Status in this test for O=C(Nc1ccc(F)cc1F)c1cccnc1Oc1cccc(C(F)(F)F)c1 ?
false

In this assay, the call recorded for Clc1ccc(Cl)c(Cl)c1Cl was what?
false
